Data provenance: patent US8148392B2

# Test system: normal cell lines PrEC, HMEC, WI38 and cancer cell lines DU145, MDA-MB-435, HT-29
# method-summary: Cancer cell selectivity, IC90 in normal versus cancer cell lines (XTT)
# Type: cell-based, human
# condition-label: average IC90 of all normal / average IC90 of all cancer cell lines, 6 to 7 days
# Excerpt: An exemplary method of assessing the differential sensitivity between normal and cancer cells for a compound has been described by Vassilev et al. (Anti-Cancer Drug Design (2001) 16:7). […] Thus, the IC90 values for candidate compounds can be evaluated in various cancer cell lines (such as those outlined above) and normal cells (such as HUVEC and/or WI38 cells) and compared. IC90 values can be measured using a variety of standard techniques as known in the art. […]
property: Normal/cancer IC90 ratio

molecule	experimental-value
COc1cccc2c1C(=O)c1c(O)c3c(c(O)c1C2=O)C[C@@](O)(C(=O)CO)C[C@@H]3O[C@H]1C[C@H](N)[C@H](O)[C@H](C)O1 [Doxorubicin, doxorubicin, reference compound]	5.6
Cc1[nH]c2ccccc2c1-c1nc2c3cccnc3c3ncccc3c2[nH]1	>4.3
c1ccc(-c2[nH]c3ccccc3c2-c2nc3c4cccnc4c4ncccc4c3[nH]2)cc1	>5.6
COc1cc([C@@H]2c3cc4c(cc3[C@@H](O[C@@H]3O[C@@H]5CO[C@@H](C)O[C@H]5[C@H](O)[C@H]3O)[C@H]3COC(=O)[C@H]23)OCO4)cc(OC)c1O [Etoposide, etoposide, reference compound]	>5.0
